System: SN12C renal
Assay: NCI tumour cell line growth inhibition, 48 h
Catalogue of TGI readings, one per entry.
Reply numerically in µM, unit not repeated.

# input molecule: COc1cccc(C2CC(C)(O)Oc3cc4c(cc32)OCO4)c1O (configuration not stated) ; wanted: its TGI
89.2

Next molecule: COC(=O)c1ccc(/C=C/c2cc(O)ccc2O)cc1
18.8

Next molecule: COc1cccc(C2c3cc4c(cc3OC(N3CCCCC3)C2C)OCO4)c1O (configuration not stated)
19.4

* * *

System: NCI-H226 lung
Test: NCI tumour cell line growth inhibition, 48 h
TEST READOUT: log10(TGI) (log10 of the value in µM)
All values: base-10 log of TGI in µM.

CSc1nc(=O)n(CCC#N)nc1SC ... 1.93
NS(=O)(=O)c1ccc(/C=C/c2ccc(O)c(O)c2)cc1 ... 1.78
CC(=O)CCn1ncc(Cl)c(Cl)c1=O ... 1.50
[N-]=[N+]=Nc1c([N+](=O)[O-])c(=O)n(-c2ccccc2)c2ccccc12 ... 1.99
COc1ccc(/C=C\[N+](=O)[O-])cc1OC ... 1.95

Kindly consider the entry below.
# input molecule: CC/C=C\C[C@H](O)C/C=C1/C(=O)C(Cl)=C[C@@H]1C/C=C\CCCC(=O)OC ; wanted: its log10(TGI)
0.35
